Source listed as patent US11279735B2.

Please go through the items and note down their MIC.
- Tested on: Escherichia coli (E. coli) strain CFT073 ATCC 700928
- Type: cell-based
- ASSAY CONTEXT: ATCC 700928, 22 h
- Experimental: In vitro antimicrobial activity of each compound was determined by measuring minimal inhibitor concentrations (MICs) using the broth micro-dilution technique as approved by the Clinical and Laboratory Standards Institute (CLSI) (Methods for Dilution Antimicrobial Susceptibility Tests for Bacteria that Grow Aerobically; Approved Standard—Eighth Edition. CLSI document M07-A8. Wayne, Pa.: Clinical and Laboratroy Standards; 2009). […]
The answer is to be given in µM; state only the numeric part.

Query: Let me know recorded MIC for CCC[C@H]1C(=O)N[C@@H](C2CCCCCC2)C(=O)N[C@@H](CN)C(=O)N[C@@H](COC2CC3(CC(N)C3)C2)C(=O)N[C@H](C)CO[C@H](CC2CC3(CCC3)C2)[C@@H](C)C(=O)N1C (single isomer, unassigned; stereoisomer 2) [Example 170] , thanks.
Reply: 0.78

Query: Let me know recorded MIC for CCCCCC[C@H]1OC(=O)CNC(=O)[C@H](COCCCN)NC(=O)[C@H](CN)NC(=O)[C@H](C2CCCCCC2)NC(=O)[C@H](CCC)N(C)C(=O)[C@@H]1C , thanks.
Reply: 3.1

Query: Let me know recorded MIC for CCCCCCCCCC[C@H]1OC(=O)CNC(=O)[C@H](CC)NC(=O)[C@H](CO)NC(=O)[C@H]([C@@H](C)CC)NC(=O)[C@H](CC(C)C)N(C)C(=O)[C@@H]1C , thanks.
Reply: 13
